test.target: T1, rat MuSK (rat, UniProt Q62838 22-494, limits assumed)
T1 construct: Coated on Biacore chip (200RU) or ELISA plate
T1 sequence (looked up): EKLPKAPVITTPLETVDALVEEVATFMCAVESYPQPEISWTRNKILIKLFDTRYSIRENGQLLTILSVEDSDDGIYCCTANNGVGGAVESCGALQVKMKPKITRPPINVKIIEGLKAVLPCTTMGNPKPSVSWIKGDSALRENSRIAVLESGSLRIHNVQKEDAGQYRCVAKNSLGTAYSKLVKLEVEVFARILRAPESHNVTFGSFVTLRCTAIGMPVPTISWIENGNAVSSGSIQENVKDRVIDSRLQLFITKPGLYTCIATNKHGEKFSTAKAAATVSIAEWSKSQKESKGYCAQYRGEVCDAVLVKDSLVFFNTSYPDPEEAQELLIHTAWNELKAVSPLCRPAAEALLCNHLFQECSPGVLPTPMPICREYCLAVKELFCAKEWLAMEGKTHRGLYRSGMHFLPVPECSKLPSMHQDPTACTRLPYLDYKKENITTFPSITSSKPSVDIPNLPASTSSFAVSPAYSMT
test: Biacore, MuSK on chip, association pH 7.4, dissociation pH 5.5
In this section, each of the binders is paired with its reported kon.
Value expressed in M⁻¹ s⁻¹; do not type the unit.

Reference set, count: 2
| binder | quantity.measured | observed.measurement |
| --- | --- | --- |
| 3B2g2m1 (antibody, human IgG1, V domains shown, human IgG1-LALA backbone; produced in HEK293 cells; also called MuSK agonist antibody 3B2g2m1; MuSK-mAb 3B2g2m1) VH: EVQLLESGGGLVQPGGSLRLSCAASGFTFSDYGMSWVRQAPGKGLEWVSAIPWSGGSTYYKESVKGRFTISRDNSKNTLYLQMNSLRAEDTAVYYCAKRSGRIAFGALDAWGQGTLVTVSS VL: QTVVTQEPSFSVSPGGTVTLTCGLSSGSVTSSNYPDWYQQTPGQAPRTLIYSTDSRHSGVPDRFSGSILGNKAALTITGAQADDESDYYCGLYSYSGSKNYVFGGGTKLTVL | kon | 1.15e+06 |
| 3B2g1m4 (antibody, human IgG1, V domains shown, human IgG1-LALA backbone; produced in HEK293 cells) VH: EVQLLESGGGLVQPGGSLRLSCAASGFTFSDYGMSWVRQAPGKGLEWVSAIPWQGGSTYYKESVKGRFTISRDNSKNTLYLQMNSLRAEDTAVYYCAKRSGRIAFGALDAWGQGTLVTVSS VL: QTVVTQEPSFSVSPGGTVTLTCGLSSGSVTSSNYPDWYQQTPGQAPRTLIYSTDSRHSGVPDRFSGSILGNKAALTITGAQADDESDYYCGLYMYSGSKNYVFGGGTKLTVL | kon | 950000 |

Could you now look at the following binder, please?
Entry 3B2g1m2 (antibody, human IgG1, V domains shown, human IgG1-LALA backbone; produced in HEK293 cells) VH: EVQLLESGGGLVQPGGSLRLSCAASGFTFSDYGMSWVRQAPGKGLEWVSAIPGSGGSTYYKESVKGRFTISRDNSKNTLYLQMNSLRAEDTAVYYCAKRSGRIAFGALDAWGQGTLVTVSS VL: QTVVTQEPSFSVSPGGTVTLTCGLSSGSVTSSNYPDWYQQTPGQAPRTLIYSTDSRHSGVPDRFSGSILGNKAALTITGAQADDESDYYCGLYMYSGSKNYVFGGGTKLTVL : reported kon = ? 40000

Taken from patent US20230151091A1.
